# assay.procedure: Octanol/water partition coefficient, logD of the compound at pH 7.4 by shake flask method
# Type: physicochemical
quantity.measured: logD

>>> readout_number("CCc1cc(OC)c(C(=O)N[C@@H]2[C@H]3CC[C@H](C3)[C@@H]2C(=O)NCC2(C)CCC2)cc1O[C@H]1CC[C@@](C)(C(=O)O)CC1")
4
>>> readout_number("COc1cc(F)c(O[C@H]2CC[C@@](C)(C(=O)O)CC2)cc1C(=O)N[C@@H]1[C@H]2CC[C@H](C2)[C@@H]1C(=O)Nc1ccc(F)c(S(F)(F)(F)(F)F)c1")
4.9
>>> readout_number("COc1cc(C(F)(F)F)c(O[C@H]2CC[C@@](C)(C(=O)O)CC2)cc1C(=O)N[C@@H]1[C@H]2CC[C@H](C2)[C@@H]1C(=O)NCC1(C)CCC1")
4.1

Origin of measurements: ChEMBL document CHEMBL5518236
